This collection of values is drawn from patent US12692274B2.

- Test system: NQO1 activation in BEAS-2B cells
- testMethodNotes: BEAS-2B cellular MTT assay of NQO1 activation, 0% HSA
- Assay type: cell-based
- conditionDetails: Homo sapiens, Serum Free W, read-out: BEAS EC50 (nM) Serum Free W
Reported log10 EC50 values follow for various compounds
recordedMetric: log10 EC50 (log10 of the value in nM)

[[record]]
compound = "Cc1cc2cc3c1CCN(C3)C(=O)c1ccc(cc1)CCCCCCn1nnc3c(C)c(cnc31)C2CC(=O)O (stereo not shown) [Compound 106]"
assayvalue = 0.65

[[record]]
compound = "Cc1c2ccc3c1nnn3CCOCCCc1ccc(c(F)c1)C(=O)N1CCc3ccc(cc3C1)[C@@H]2CC(=O)O [Compound 364]"
assayvalue = 1.75

[[record]]
compound = "Cc1cc2cc3c1CCN(C3)C(=O)c1ccc(cc1)CCCCCCn1nnc3c(C)c(cnc31)[C@@H]2CC(=O)O [Compound 92]"
assayvalue = 1.37

[[record]]
compound = "C[C@H](C(=O)O)[C@@H]1c2ccc(nc2)OCC/C=C/Cc2ccc(cc2)C(=O)N2CCc3ccc1cc3C2 [Compound 47]"
assayvalue = 1.42

[[record]]
compound = "Cc1cc2ncc1[C@H](CC(=O)O)c1ccc3c(c1)CN(CC3)C(=O)c1c(F)cc(cc1F)CCCCCO2 [Compound 120]"
assayvalue = 0.15

[[record]]
compound = "Cc1c2cnc3c1nnn3CCCC/C=C/Cc1ccc(cc1)C(=O)N1CCc3ccc(cc3C1)[C@@H]2CC(=O)O [Compound 353]"
assayvalue = 1.23

[[record]]
compound = "C[C@H](C(=O)O)[C@@H]1c2ccc(nc2)OCCCCCc2ccc(cc2)C(=O)N2CCc3ccc1cc3C2 [Compound 55]"
assayvalue = 2.10

[[record]]
compound = "Cc1c2n(C)c3ccc(cc13)CCCCCCn1nnc3c(C)c(cnc31)[C@@H](CC(=O)O)c1ccc3c(c1)CN(CC3)C2=O [Compound 63]"
assayvalue = -0.15

[[record]]
compound = "COc1cc2ccc1C(=O)N1CCc3ccc(cc3C1)[C@@H](CC(=O)O)c1cnc3c(nnn3CCCCC2)c1C [Compound 88]"
assayvalue = 1.55

[[record]]
compound = "Cc1c2ccc3c1nnn3CCCCCc1ccc(cc1)C(=O)N1CCc3ccc(cc3C1)[C@H]2[C@H](C)C(=O)O [Compound 133]"
assayvalue = 1.20

[[record]]
compound = "Cc1c2ccc3c1nnn3CCCCCCc1ccc(cc1OC(F)(F)F)C(=O)N1CCc3ccc(cc3C1)[C@@H]2CC(=O)O [Compound 42]"
assayvalue = 0.94

[[record]]
compound = "Cc1c2cnc3c1nnn3CCCCCCOc1cc(F)c(c(F)c1)C(=O)N1CCc3ccc(cc3C1)[C@H]2CC(=O)O [Compound 208]"
assayvalue = 1.00

[[record]]
compound = "COc1cc2ccc1C(=O)N1CCc3ccc(cc3C1)C(CC(=O)O)c1cnc3c(nnn3CCCCCC2)c1C (stereo not shown) [Compound 103]"
assayvalue = 1.34

[[record]]
compound = "Cc1c2cnc3c1nnn3CCCCCc1cccc3c1cc(n3C)C(=O)N1CCc3ccc(cc3C1)C2CC(=O)O (stereo not shown) [Compound 49]"
assayvalue = 1.43


====

Some compounds, each annotated with its measured EC50.
- Tested on: NQO1 activation in BEAS-2B cells
- testMethodNotes: BEAS-2B cellular MTT assay of NQO1 activation, 0.3% HSA
- Assay type: cell-based
- conditionDetails: Homo sapiens, BEAS+, read-out: BEAS+ EC50
recordedMetric: EC50 (nM)

[[record]]
compound = "Cc1c2ccc3c1nnn3C/C=C/COCc1ccc(c(F)c1)C(=O)N1CCc3ccc(cc3C1)C2CC(=O)O (stereo not shown) [Compound 386]"
readoutqualifier = "="
assayvalue = 123

[[record]]
compound = "C[C@H](C(=O)O)[C@@H]1c2ccc(nc2)OCCCCCc2ccc(cc2)C(=O)N2CCc3ccc1cc3C2 (single isomer, unassigned) [Compound 127]"
readoutqualifier = "="
assayvalue = 0.4

[[record]]
compound = "Cc1c2ccc3c1nnn3CCCCCn1ccc3ccc(cc31)C(=O)N1CCc3ccc(cc3C1)C2CC(=O)O (stereo not shown) [Compound 393]"
readoutqualifier = "="
assayvalue = 1890

[[record]]
compound = "Cc1c2ccc3c1nnn3CCCCc1ccc3ccc(cc3c1)C(=O)N1CCc3ccc(cc3C1)C2CC(=O)O (stereo not shown) [Compound 390]"
readoutqualifier = "="
assayvalue = 3350

[[record]]
compound = "Cc1cc2ncc1C(CC(=O)O)c1ccc3c(c1)CN(CC3)C(=O)c1ccc(cc1)OCCCCO2 (stereo not shown) [Compound 169]"
readoutqualifier = "="
assayvalue = 155

[[record]]
compound = "Cc1c2ccc3c1nnn3CCCCCOc1cc(F)c(c(F)c1)C(=O)N1CCc3ccc(cc3C1)C2CC(=O)O (stereo not shown) [Compound 314]"
readoutqualifier = "="
assayvalue = 109

[[record]]
compound = "O=C(O)CC1c2ccc(cc2)OCCCCCc2ccc(cc2)C(=O)N2CCc3ccc1cc3C2 (stereo not shown) [Compound 396]"
readoutqualifier = "="
assayvalue = 204

[[record]]
compound = "Cc1c2ccc3c1nnn3CCCCCCc1ccc(cc1)C(=O)N1CCc3ccc(cc3C1)[C@@H]2[C@H](C)C(=O)O (racemic) [Compound 200]"
readoutqualifier = "="
assayvalue = 9.5

[[record]]
compound = "Cc1nc2ccc1C(CC(=O)O)c1ccc3c(c1)CN(CC3)C(=O)c1ccc(cc1)CCCCCO2 (stereo not shown) [Compound 150]"
readoutqualifier = "="
assayvalue = 164

[[record]]
compound = "Cc1c2ccc3c1nnn3CCCOCCOc1cc(F)c(c(F)c1)C(=O)N1CCc3ccc(cc3C1)[C@@H]2[C@@H](C)C(=O)O [Compound 367]"
readoutqualifier = "="
assayvalue = 12.2

[[record]]
compound = "O=C(O)CC1c2ccc3c(c2)CN(CC3)C(=O)c2ccc(cc2F)CCCCCn2nnc3cc1ccc32 (stereo not shown) [Compound 252]"
readoutqualifier = "="
assayvalue = 21.2

[[record]]
compound = "Cc1c2ccc3c1nnn3CCCCCc1ccc3c(c1)nc(n3C)C(=O)N1CCc3ccc(cc3C1)C2CC(=O)O (stereo not shown) [Compound 205]"
readoutqualifier = "="
assayvalue = 372

[[record]]
compound = "Cc1cc2ncc1C(CC(=O)O)c1ccc3c(c1)CN(CC3)C(=O)c1c(F)cc(cc1F)CCCCCO2 (stereo not shown) [Compound 161]"
readoutqualifier = "="
assayvalue = 7.8

[[record]]
compound = "O=C(O)CC1c2ccc(nc2)OCCCCOc2ccc(cc2C(F)(F)F)C(=O)N2CCc3ccc1cc3C2 (stereo not shown) [Compound 184]"
readoutqualifier = "="
assayvalue = 2900

[[record]]
compound = "O=C(O)CC1c2cnc(nc2)OCCCCc2cc(F)c(c(F)c2)C(=O)N2CCc3ccc1cc3C2 (stereo not shown) [Compound 242]"
readoutqualifier = ">"
assayvalue = 10000

[[record]]
compound = "O=C(O)CC1c2ccc(nc2)OCCCCCc2cc(F)c(c(F)c2)C(=O)N2CCc3ccc1cc3C2 (stereo not shown) [Compound 187]"
readoutqualifier = "="
assayvalue = 22

[[record]]
compound = "O=C(O)CC1c2cnc(nc2)OCCCCc2ccc(c(Cl)c2)C(=O)N2CCc3ccc1cc3C2 (stereo not shown) [Compound 226]"
readoutqualifier = ">"
assayvalue = 10000

[[record]]
compound = "O=C(O)CC1c2ccc3c(c2)CN(CC3)C(=O)c2ccc3c(ccn3CCCCCCn3nnc4cc1ccc43)c2 (stereo not shown) [Compound 397]"
readoutqualifier = "="
assayvalue = 1520

[[record]]
compound = "Cc1c2ccc3c1nnn3CCCCCCOc1ccc(c(F)c1)C(=O)N1CCc3ccc(cc3C1)[C@@H]2[C@H](C)C(=O)O [Compound 177]"
readoutqualifier = "="
assayvalue = 107

[[record]]
compound = "Cc1c2ccc3c1nnn3CCCCCCc1ccc(cc1)C(=O)N1CCc3ccc(cc3C1)[C@@H]2[C@H](C)C(=O)O [Compound 175]"
readoutqualifier = "="
assayvalue = 104

[[record]]
compound = "Cc1c2ccc3c1nnn3CCCCOCc1ccc(c(F)c1)C(=O)N1CCc3ccc(cc3C1)C2CC(=O)O (stereo not shown) [Compound 387]"
readoutqualifier = "="
assayvalue = 62.6

[[record]]
compound = "Cc1cc2ccc1C(=O)N1CCc3ccc(cc3C1)[C@@H](CC(=O)O)c1ccc3c(c1)nnn3CCCCCCO2 [Compound 327]"
readoutqualifier = "="
assayvalue = 179

[[record]]
compound = "CC(C)(C(=O)O)C1c2ccc3c(c2)CN(CC3)C(=O)c2ccc(cc2)OCCCCCCn2nnc3cc1ccc32 (stereo not shown) [Compound 287]"
readoutqualifier = "="
assayvalue = 112

[[record]]
compound = "Cc1cc2ccc1C(=O)N1CCc3ccc(cc3C1)[C@H]([C@H](C)C(=O)O)c1ccc3c(c1)nnn3CCCCCCO2 [Compound 292]"
readoutqualifier = "="
assayvalue = 637

[[record]]
compound = "Cc1c2ccc3c1nnn3CCCOCCOc1cc(F)c(c(F)c1)C(=O)N1CCc3ccc(cc3C1)C2CC(=O)O (stereo not shown) [Compound 368]"
readoutqualifier = "="
assayvalue = 114

[[record]]
compound = "Cc1c2ccc3c1nnn3CCCCCOc1ccc(c(F)c1)C(=O)N1CCc3ccc(cc3C1)[C@@H]2CC(=O)O [Compound 254]"
readoutqualifier = "="
assayvalue = 16.4

[[record]]
compound = "O=C(O)C[C@H]1c2ccc(nc2)OCCCCCc2ccc(cc2)C(=O)N2CCc3ccc1cc3C2 [Compound 172]"
readoutqualifier = "="
assayvalue = 188

[[record]]
compound = "Cc1c2ccc3c1nnn3CCCCCCc1ccc(cc1F)C(=O)N1CCc3ccc(cc3C1)C2CC(=O)O (stereo not shown) [Compound 264]"
readoutqualifier = "="
assayvalue = 5.4

